# Subject of test: Chaperone SurA (Escherichia coli (strain K12))
# Sequence (P0ABZ6 whole entry): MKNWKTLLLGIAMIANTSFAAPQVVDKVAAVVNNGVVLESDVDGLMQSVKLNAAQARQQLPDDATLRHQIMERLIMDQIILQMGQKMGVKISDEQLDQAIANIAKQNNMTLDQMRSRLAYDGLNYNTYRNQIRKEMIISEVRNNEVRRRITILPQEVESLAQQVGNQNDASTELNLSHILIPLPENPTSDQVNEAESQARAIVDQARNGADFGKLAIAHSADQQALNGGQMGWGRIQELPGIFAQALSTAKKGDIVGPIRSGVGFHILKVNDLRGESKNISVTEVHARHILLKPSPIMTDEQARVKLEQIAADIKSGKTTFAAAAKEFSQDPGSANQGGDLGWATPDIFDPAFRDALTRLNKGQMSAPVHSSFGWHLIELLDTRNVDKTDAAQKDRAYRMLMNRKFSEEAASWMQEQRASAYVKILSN
# Measurement notes: Inhibition of rhodamine-WEYIPNV binding to Escherichia coli SurA by fluorescence anisotropy
Reported pIC50 values are given for each entry in this list.
Please keep in mind that pIC50 is minus log10 of the molar concentration; only the number is needed.

O=C(N[C@@H](Cc1c[nH]c2ccccc12)C(=O)O)OCC1c2ccccc2-c2ccccc21 : 4.63
CC[C@H](C)[C@H](NC(=O)[C@H](Cc1ccc(O)cc1)NC(=O)[C@H](CCC(=O)O)NC(=O)[C@@H](N)Cc1c[nH]c2ccccc12)C(=O)N1CCC[C@H]1C(=O)N[C@@H](CC(N)=O)C(=O)N[C@H](C(=O)O)C(C)C : 5.58
O=C(N[C@@H](Cc1ccccc1)C(=O)O)OCC1c2ccccc2-c2ccccc21 : 3.82

For the next question, use this compound.
IN: Please report the recorded pIC50 for `O=C(N[C@H](Cc1ccc2ccccc2n1)C(=O)O)OCC1c2ccccc2-c2ccccc21` .
OUT: 4.24
